- experimental-system: Albumin (Homo sapiens, UniProt P02768)
- Sequence (P02768 whole entry): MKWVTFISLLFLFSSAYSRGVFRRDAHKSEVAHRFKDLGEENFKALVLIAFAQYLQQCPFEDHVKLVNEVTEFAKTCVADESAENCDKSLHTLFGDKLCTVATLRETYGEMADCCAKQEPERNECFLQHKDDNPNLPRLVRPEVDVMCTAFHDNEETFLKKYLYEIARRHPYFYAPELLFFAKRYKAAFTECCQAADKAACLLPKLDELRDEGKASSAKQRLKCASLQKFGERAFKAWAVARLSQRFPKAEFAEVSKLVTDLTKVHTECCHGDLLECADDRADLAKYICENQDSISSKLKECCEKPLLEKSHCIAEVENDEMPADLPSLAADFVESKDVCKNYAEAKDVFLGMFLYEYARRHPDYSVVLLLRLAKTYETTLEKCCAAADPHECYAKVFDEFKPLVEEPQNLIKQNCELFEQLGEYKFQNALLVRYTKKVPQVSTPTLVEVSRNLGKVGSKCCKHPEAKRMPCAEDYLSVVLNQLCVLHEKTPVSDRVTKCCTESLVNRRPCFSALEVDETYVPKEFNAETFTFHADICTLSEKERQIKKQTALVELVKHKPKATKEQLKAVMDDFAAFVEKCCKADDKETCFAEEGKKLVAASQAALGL
- measurement-notes: Binding affinity to human serum albumin assessed as modified Stern-Volmer association constant at pH 7.4 and 310K by spectrofluorimetry
- Type: ADME
- details: isolated protein
result-type: Ka (M⁻¹)
Expressed in M⁻¹, but write only the number.

INPUT: Param item = "CCN(CC)Cc1cc(Nc2ccnc3cc(Cl)ccc23)ccc1O.Cl" ; retrieve measured Ka.
OUTPUT: 45900

----------
- experimental-system: Albumin (Homo sapiens)
- measurement-notes: Binding affinity to human serum albumin assessed as modified Stern-Volmer association constant at pH 7.4 and 291K by spectrofluorimetry in presence of ibuprofen
- Format: ADME
- details: isolated protein
result-type: Ka (M⁻¹)
Express it in M⁻¹; write the number only.

INPUT: Param item = "CCN(CC)Cc1cc(Nc2ccnc3cc(Cl)ccc23)ccc1O.Cl" ; retrieve measured Ka.
OUTPUT: 114000
